// provenance: patent US12590091B2

Below is a list of entries, each paired with its recorded pIC50 value.
# subject of test: human TLR7 (Homo sapiens)
# Sequence (Q9NYK1 27-1049): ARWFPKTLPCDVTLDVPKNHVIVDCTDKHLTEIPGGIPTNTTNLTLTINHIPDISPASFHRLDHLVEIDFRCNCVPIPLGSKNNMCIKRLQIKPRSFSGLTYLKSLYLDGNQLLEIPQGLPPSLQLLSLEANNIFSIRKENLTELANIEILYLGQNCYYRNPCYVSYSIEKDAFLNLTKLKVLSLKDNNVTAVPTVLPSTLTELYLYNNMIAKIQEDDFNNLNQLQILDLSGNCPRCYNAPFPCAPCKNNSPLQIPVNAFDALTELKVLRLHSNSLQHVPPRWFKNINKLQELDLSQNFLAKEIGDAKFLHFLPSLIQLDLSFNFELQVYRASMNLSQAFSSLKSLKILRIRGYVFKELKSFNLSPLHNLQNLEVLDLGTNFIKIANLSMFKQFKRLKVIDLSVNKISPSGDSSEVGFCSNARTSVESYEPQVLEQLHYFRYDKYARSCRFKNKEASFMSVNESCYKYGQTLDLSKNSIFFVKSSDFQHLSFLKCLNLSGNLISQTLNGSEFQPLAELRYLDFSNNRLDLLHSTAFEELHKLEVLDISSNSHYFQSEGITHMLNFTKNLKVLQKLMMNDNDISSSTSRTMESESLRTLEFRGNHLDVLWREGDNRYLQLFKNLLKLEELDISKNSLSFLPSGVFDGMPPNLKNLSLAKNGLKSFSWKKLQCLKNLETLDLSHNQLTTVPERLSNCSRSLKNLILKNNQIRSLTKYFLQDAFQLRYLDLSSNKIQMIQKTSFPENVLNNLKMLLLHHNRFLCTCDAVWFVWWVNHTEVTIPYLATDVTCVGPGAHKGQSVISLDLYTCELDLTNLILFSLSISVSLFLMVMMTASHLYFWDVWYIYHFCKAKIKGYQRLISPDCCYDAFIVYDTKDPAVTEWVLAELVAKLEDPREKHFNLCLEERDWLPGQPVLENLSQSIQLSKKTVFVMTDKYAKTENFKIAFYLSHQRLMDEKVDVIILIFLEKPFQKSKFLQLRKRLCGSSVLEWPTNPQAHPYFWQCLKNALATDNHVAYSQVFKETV
# protocol: TLR7 inhibition reporter assay (HEK-Blue cells, SEAP reporter)
# condition label: HEK-Blue cells overexpressing human TLR7, stimulated with gardiquimod 7.5 μM, 22 hour incubation
# From the text: TLR7/8/9 Inhibition Reporter Assays HEK-Blue™-cells (Invivogen) overexpressing human TLR7, TLR8 or TLR9 receptors were used for screening inhibitors of these receptors using an inducible SEAP (secreted embryonic alkaline phosphatase) reporter gene under the control of the IFN-β minimal promoter fused to five NF-κB and AP-1-binding sites. […]
Scale explanation: pIC50 corresponds to minus log10 of a concentration expressed in moles per litre.

# annotated cases, reported pIC50 shown
Endpoint output: pIC50 of Cc1nc(-c2ccc(C3(O)CC4CCC(C3)N4CC(C)C)c(F)c2)cc2c1cc(-c1ccc(S(C)(=O)=O)cc1)n2C (stereo not shown) [Example 91] . Value? 4.51

Endpoint output: pIC50 of Cc1nc(-c2cc(F)c(N3CC4CCC(C3)N4CCCO)cc2F)cc2c1cc(-c1ccc(S(C)(=O)=O)cc1)n2C [Example 79] . Value? 5.57

Endpoint output: pIC50 of COc1ccc(-c2c(C)c3cc(C4CCN(C5CCN(CC(C)C)CC5)CC4)ncc3n2C)cc1OC [Example 13] . Value? 4.76

Further cases:
Endpoint output: pIC50 of Cc1nc(-c2ccc(N3CCN(CCO)CC3)c(F)c2)cc2c1cc(-c1ccc(S(C)(=O)=O)cc1)n2C [Example 69] . Value? 4.63
